assay: Drug metabolism in Wistar Han rat liver microsomes assessed as mixed function oxidase mediated compound cleavage by measuring compound remaining after 60 mins in presence of NADPH-regenerating system by LC-UV analysis; type: ADME; conditions: read-out: Stability
measured_endpoint: remaining at 1 h (%)

# compound_structure, remaining at 1 h, %
rows = [
    ("O=C(CCCCCCCn1cc(-c2cccnc2)nn1)Nc1ccccc1-c1ccccc1", 26),
    ("c1ccc(-c2ccccc2-c2cn(CCCCCCCn3cc(-c4cccnc4)nn3)nn2)cc1", 47),
    ("O=C(/C=C/c1cccnc1)NCCCCC1CCN(C(=O)c2ccccc2)CC1", 62),
]

I: O=C(NCCCCCCCn1cc(-c2cccnc2)nn1)c1ccccc1-c1ccccc1
II: c1ccc(-c2ccccc2OCCCCCCn2cc(-c3cccnc3)nn2)cc1
Req: Between these two entries, I and II , state which has the higher remaining at 1 h. Response format: the label of the selected entry.
Resp: I
(I: 45%, II: 31%)

====

assay: Drug metabolism in human liver microsomes assessed as mixed function oxidase mediated compound cleavage by measuring compound remaining after 60 mins in presence of NADPH-regenerating system by LC-UV analysis; format: ADME; conditions: read-out: Stability
measured_endpoint: remaining at 1 h (%)

Completed entries (count: 3):
# compound, obs_value
data = [
    ("O=C(NCCCCCCCn1cc(-c2cccnc2)nn1)c1ccccc1-c1ccccc1", 88),
    ("c1ccc(-c2ccccc2OCCCCCCn2cc(-c3cccnc3)nn2)cc1", 49),
    ("O=C(/C=C/c1cccnc1)NCCCCC1CCN(C(=O)c2ccccc2)CC1 [DAPORINAD]", 92),
]

I: c1ccc(-c2ccccc2-c2cn(CCCCCCCn3cc(-c4cccnc4)nn3)nn2)cc1
II: O=C(CCCCCCCn1cc(-c2cccnc2)nn1)Nc1ccccc1-c1ccccc1
Req: For the pair I and II , which entry has the numerically smaller recorded remaining at 1 h? Bench note: the answer is the label of the chosen record.
Resp: II
(II: 45%, I: 87%)

====

target: Nicotinamide phosphoribosyltransferase (Mus musculus); test: Inhibition of recombinant mouse NAMPT expressed in bacterial expression system using nicotinamide as substrate after 1 hr by fluorescence based NMNAT-3 enzyme coupled assay; conditions: read-out: IC50
measured_endpoint: IC50 (nM)

// worked examples, IC50 included
# compound_structure, IC50 [nM]
data = [
    ("O=C(/C=C/c1cccnc1)NCCCCC1CCN(C(=O)c2ccccc2)CC1", 4.9),
    ("O=C(CCCCCCCc1nnc(-c2cccnc2)[nH]1)Nc1ccccc1-c1ccccc1", 269),
    ("c1ccc(-c2ccccc2OCCCCCCn2cc(-c3cccnc3)nn2)cc1", 3.8),
]

1: O=C(NCCCCCCCn1cc(-c2cccnc2)nn1)Nc1ccccc1-c1ccccc1
2: O=S(=O)(NCCCCCCCCn1cc(-c2cccnc2)nn1)c1ccccc1-c1ccccc1
Req: Between the entries labelled 1 and 2 , which has a larger IC50 value on record? State the label of the item chosen.
Resp: 2
(2: 47 nM, 1: 32.4 nM)

====

assay: Half life in athymic Nu/Nu Harlan mouse at 10 mg/kg, iv administered as single dose up to 24 hrs by LC-ESI-MS analysis; format: ADME, organism-based; settings: in vivo
measured_endpoint: half-life (h)

# compound_structure, obs_value
records = [
    ("c1ccc(-c2ccccc2-c2cn(CCCCCCCn3cc(-c4cccnc4)nn3)nn2)cc1", 1.48),
]

A: c1ccc(-c2ccccc2OCCCCCCn2cc(-c3cccnc3)nn2)cc1
B: O=C(/C=C/c1cccnc1)NCCCCC1CCN(C(=O)c2ccccc2)CC1
Req: # min-compare on half-life between A and B Pick one; state its label.
Resp: B

====

test: Clearance in athymic Nu/Nu Harlan mouse at 10 mg/kg, iv administered as single dose up to 24 hrs by LC-ESI-MS analysis; format: ADME, organism-based; details: in vivo
measured_endpoint: clearance (mL/min/kg)

1: c1ccc(-c2ccccc2-c2cn(CCCCCCCn3cc(-c4cccnc4)nn3)nn2)cc1
2: c1ccc(-c2ccccc2OCCCCCCn2cc(-c3cccnc3)nn2)cc1
3: O=C(/C=C/c1cccnc1)NCCCCC1CCN(C(=O)c2ccccc2)CC1 [DAPORINAD]
Req: Take the molecules listed above and rank them by clearance; the top slot goes to the highest value. Arrange the labels as the request states and list them.
Resp: 2, 1, 3
(2: 194 mL/min/kg, 1: 74 mL/min/kg, 3: 22.8 mL/min/kg)

====

target: Nicotinamide phosphoribosyltransferase (Mus musculus, UniProt Q99KQ4); assay: Inhibition of recombinant mouse NAMPT expressed in bacterial expression system using nicotinamide as substrate after 1 hr by fluorescence based NMNAT-3 enzyme coupled assay; conditions: read-out: IC50
Sequence (Q99KQ4 whole entry): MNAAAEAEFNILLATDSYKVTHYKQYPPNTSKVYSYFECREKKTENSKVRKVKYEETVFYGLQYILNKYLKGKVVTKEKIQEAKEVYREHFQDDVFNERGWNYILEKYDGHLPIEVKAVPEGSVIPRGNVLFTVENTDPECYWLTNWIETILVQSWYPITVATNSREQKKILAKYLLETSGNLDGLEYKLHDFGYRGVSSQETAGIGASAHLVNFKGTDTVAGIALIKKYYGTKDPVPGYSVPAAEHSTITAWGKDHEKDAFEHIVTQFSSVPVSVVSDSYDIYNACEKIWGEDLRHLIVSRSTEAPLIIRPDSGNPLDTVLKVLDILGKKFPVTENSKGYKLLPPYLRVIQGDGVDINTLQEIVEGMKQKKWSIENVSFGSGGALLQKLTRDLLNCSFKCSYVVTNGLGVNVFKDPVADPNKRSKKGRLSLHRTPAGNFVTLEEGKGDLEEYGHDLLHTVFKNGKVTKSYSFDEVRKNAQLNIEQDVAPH
measured_endpoint: IC50 (nM)

# compound_structure, obs_value
records = [
    ("c1ccc(-c2ccccc2-c2cn(CCCCCCCn3cc(-c4cccnc4)nn3)nn2)cc1", 8.1),
]

P: O=C(NCCCCCCCn1cc(-c2cccnc2)nn1)c1ccccc1-c1ccccc1
Q: c1ccc(-c2ccccc2OCCCCCCCCn2cc(-c3cccnc3)nn2)cc1
Req: For the pair P and Q , which entry has the numerically smaller recorded IC50? Respond with the label that goes with your answer.
Resp: P
